experiment: AUC in mouse plasma at 5 mg/kg, po; format: ADME, organism-based; parameters: dose 5 mg/kg, route oral

smiles.string | AUC / ng·h/mL
O=C(NCc1ccc(NS(=O)(=O)C(F)(F)F)cc1)c1ccc(-c2ccc(Cl)cc2)cc1 | 18800

----------
Reported values: log10 of EC50 for Peroxisome proliferator-activated receptor alpha (Mus musculus), one per item.
endpoint.label: log10 of EC50 (log10 of the value in nM)

smiles.string | target.of.assay | log10 of EC50
Cc1nc(-c2ccc(C(F)(F)F)cc2)sc1C(=O)NCc1ccc(OC(C)(C)C(=O)O)cc1 | Peroxisome proliferator-activated receptor alpha (Mus musculus) | 1.30
Cc1nc(-c2ccc(C(F)(F)F)cc2)sc1C(=O)NCc1ccc(NS(C)(=O)=O)cc1 | Peroxisome proliferator-activated receptor alpha (Mus musculus) | 2.90
CC(C)(Oc1ccc(CNC(=O)c2ccc(-c3ccc(Cl)cc3)cc2)cc1)C(=O)O | Peroxisome proliferator-activated receptor alpha (Mus musculus) | 3.00
Cc1nc(-c2ccc(C(F)(F)F)cc2)sc1C(=O)NCc1ccc(NS(=O)(=O)CC(F)(F)F)cc1 | Peroxisome proliferator-activated receptor alpha (Mus musculus) | 1.78
Cc1csc(-c2ccc(C(=O)NCc3ccc(NS(=O)(=O)C(F)(F)F)cc3)cc2)n1 | Peroxisome proliferator-activated receptor alpha (Mus musculus) | 1.90
O=C(NCc1ccc(NS(=O)(=O)C(F)(F)F)cc1)c1ccc(-c2ccc(Cl)cc2)cc1 | Peroxisome proliferator-activated receptor alpha (Mus musculus) | 1.30
COc1ccc2sc(C(=O)NCc3ccc(NS(=O)(=O)C(F)(F)F)cc3)cc2c1 | Peroxisome proliferator-activated receptor alpha (Mus musculus) | 2.11

----------
Reported values: EC50 for Peroxisome proliferator-activated receptor delta (Homo sapiens), one per item.
endpoint.label: EC50

smiles.string | endpoint.label | observed.value
O=C(NCc1ccc(NS(=O)(=O)C(F)(F)F)cc1)c1ccc(-c2ccc(Cl)cc2)cc1 | EC50 | > 10 µM
Cc1nc(-c2ccc(C(F)(F)F)cc2)sc1C(=O)NCc1ccc(NS(=O)(=O)CC(F)(F)F)cc1 | EC50 | > 10 µM
Cc1nc(-c2ccc(C(F)(F)F)cc2)sc1C(=O)NCc1ccc(NS(=O)(=O)C(C)C)cc1 | EC50 | > 10 µM
Cc1ccc(S(=O)(=O)Nc2ccc(CNC(=O)c3sc(-c4ccc(C(F)(F)F)cc4)nc3C)cc2)cc1 | EC50 | > 10 µM
Cc1nc(-c2ccc(C(F)(F)F)cc2)sc1C(=O)NCc1ccc(OC(C)(C)C(=O)NS(=O)(=O)C(F)(F)F)cc1 | EC50 | > 10 µM
Cc1nc(-c2ccc(C(F)(F)F)cc2)sc1C(=O)NCc1ccc(CNS(=O)(=O)C(F)(F)F)cc1 | EC50 | > 10 µM
CCCCS(=O)(=O)Nc1ccc(CNC(=O)c2sc(-c3ccc(C(F)(F)F)cc3)nc2C)cc1 | EC50 | > 10 µM
Cc1nc(-c2ccc(C(F)(F)F)cc2)sc1C(=O)NCc1ccc(NS(C)(=O)=O)cc1 | EC50 | > 10 µM
Cc1nc(-c2ccc(C(F)(F)F)cc2)sc1C(=O)NCc1ccc(-c2c(O)c(=O)c2=O)cc1 | EC50 | > 10 µM
Cc1nc(-c2ccc(C(F)(F)F)cc2)sc1C(=O)NCc1ccc(NC(=O)C(F)(F)F)cc1 | EC50 | > 10 µM
Cc1nc(-c2ccc(C(F)(F)F)cc2)sc1C(=O)NCc1ccc(OCc2nn[nH]n2)cc1 | EC50 | > 10 µM
Cc1nc(-c2ccc(C(F)(F)F)cc2)sc1C(=O)NCc1ccc(NS(=O)(=O)C(F)(F)F)cc1 | EC50 | 0.4 µM
